Each recorded value in this set is attributed to paper PMC4802972.

tested on: S. aureus BstA; format: biochemical, Staphylococcus aureus; conditions: + 220 nM BstA; 50 μM thiol, 50 μM mBCl, pH 7.0
ENDPOINT: Specific Activity + BstA (nmol/min/mg)

[
  {
    "COMPOUND": "CC(=O)N[C@@H](CS)C(=O)N[C@H]1[C@@H](OC2[C@H](O)[C@H](O)C(O)[C@H](O)[C@H]2O)O[C@H](CO)[C@@H](O)[C@@H]1O (stereo partly shown)",
    "UNIT DESCRIPTOR": "nmol/min/mg",
    "NUMERIC RESULT": 3.3
  },
  {
    "COMPOUND": "N[C@@H](CS)C(=O)N[C@H]1[C@@H](O[C@@H](CC(=O)O)C(=O)O)O[C@H](CO)[C@@H](O)[C@@H]1O",
    "UNIT DESCRIPTOR": "nmol/min/mg",
    "NUMERIC RESULT": 152
  },
  {
    "COMPOUND": "CC(C)(COP(=O)(O)OP(=O)(O)OC[C@H]1O[C@@H](n2cnc3c(N)ncnc32)[C@H](O)[C@@H]1OP(=O)(O)O)[C@@H](O)C(=O)NCCC(=O)NCCS",
    "UNIT DESCRIPTOR": "nmol/min/mg",
    "NUMERIC RESULT": 1.4
  },
  {
    "COMPOUND": "N[C@@H](CS)C(=O)O",
    "UNIT DESCRIPTOR": "nmol/min/mg",
    "NUMERIC RESULT": 8.3
  }
]
